Test system: SR leukemia
experimental_protocol: NCI tumour cell line growth inhibition, 48 h
Assign TGI to each entry below.

Print SR leukemia TGI for COc1ccc(C2CC(n3nnnc3-c3ccccc3)=NN2)cc1 (configuration not stated) . > 100 µM

Print SR leukemia TGI for C[N+]1(C)C/C(=C\c2ccncc2)C(=O)/C(=C/c2ccncc2)C1 . > 100 µM

Print SR leukemia TGI for CCCCCCN(CCCCCC)CC(O)c1ccc2c3c(cccc13)CC2 (configuration not stated) . 13.8 µM

Print SR leukemia TGI for O=Cc1ccc(-c2cccs2)s1 . > 100 µM

Print SR leukemia TGI for c1cc(CNC2C3CCC(C3)C2c2c[nH]c3ccccc23)cc(CNC2C3CCC(C3)C2c2c[nH]c3ccccc23)c1 (configuration not stated) . 0.773 µM

Print SR leukemia TGI for OCC1OC(n2cnc3c(/C=C(/O)c4ccccc4)ncnc32)C(O)C1O (configuration not stated) . > 100 µM

Print SR leukemia TGI for COc1cc(S(C)(=O)=O)ccc1Nc1nc2ccc(-c3ccc(NC(=O)[C@H](C)c4ccc(F)cc4)cc3)cn2n1 . > 100 µM

----------
Test system: CAKI-1 renal
experimental_protocol: NCI tumour cell line growth inhibition, 48 h; in the data active = GI50 below about 0.43 µM; inactive = the rest
Please state which outcome applies, choosing from True (active), False (inactive)

State the result this test recorded for COc1ccc(-c2cn[nH]c2-c2cc(OC)c3c(c2)OCCO3)cc1 . True

State the result this test recorded for C/C(=N\NC(N)=S)c1nc2ccc(Cl)cc2[nH]1 . True

State the result this test recorded for COc1ccc(C2CC(n3nnnc3-c3ccccc3)=NN2)cc1 (configuration not stated) . True

State the result this test recorded for COc1cc(/C=C2/N=C(c3ccccc3)N(C3=NNC4(C(=O)N3)c3ccccc3-c3ccccc34)NC2=O)ccc1O . False

State the result this test recorded for Oc1ccccc1-c1nc2c3ccccc3c3ccccc3c2[nH]1 . False

State the result this test recorded for CC(=O)Nc1ccc(S(=O)(=O)NNC(=O)c2cccnc2Nc2ccc(Cl)cc2)cc1 . False

State the result this test recorded for CC(C)(C)NC(=O)[C@H]1C[C@H]2CCCC[C@H]2CN1C[C@@H](O)[C@H](Cc1ccccc1)NC(=O)[C@H](CC(N)=O)NC(=O)c1ccc2ccccc2n1 . False

----------
Tested on: HCT-15 colon
experimental_protocol: NCI tumour cell line growth inhibition, 48 h
Assign GI50 to each entry below.

Name the recorded GI50 of the item COC(=O)C1=C(C(=O)OC)SC(=C(Cl)C(=S)Sc2ccccc2N)S1 in your answer. 43.8 µM

Name the recorded GI50 of the item CCCCCCN(CCCCCC)CC(O)c1ccc2c3c(cccc13)CC2 (stereo not given) in your answer. 6.63 µM

Name the recorded GI50 of the item Oc1ccccc1-c1nc2c3ccccc3c3ccccc3c2[nH]1 in your answer. 5.31 µM

Name the recorded GI50 of the item CC(=O)Nc1ccc(S(=O)(=O)NNC(=O)c2cccnc2Nc2ccc(Cl)cc2)cc1 in your answer. 13.7 µM

Name the recorded GI50 of the item CC(C)[C@H]1C(=O)N[C@@H](CCCN=C(N)N)C(=O)NCC(=O)N[C@@H](CC(=O)O)C(=O)N[C@H](Cc2ccccc2)C(=O)N1C in your answer. 3.09 µM

Name the recorded GI50 of the item Cc1cc(N/N=C/c2nc(-c3ccc(Cl)cc3)oc2C)c2cc(Cl)ccc2n1 in your answer. 1.68 µM

Name the recorded GI50 of the item Cc1c2ccc(N(C)c3ccnc(Nc4cccc(S(N)(=O)=O)c4)n3)cc2nn1C in your answer. 9.34 µM

Name the recorded GI50 of the item CCN(CCNc1ccc(C)c2sc3ccccc3c(=O)c12)CC(C)(C)O in your answer. 2.59 µM

Name the recorded GI50 of the item Cc1ccc(NC(=O)Cn2c(Br)nc3c2c(=O)n(C)c(=O)n3C)cc1 in your answer. 12.2 µM

Name the recorded GI50 of the item FCc1ncc(-c2ccc(C(F)(F)F)cc2)c(NC2CCCCCC2)n1 in your answer. > 10 µM
